Subject Of Test: Rabies virus glycoprotein G, strain CVS-11 (Challenge Virus Standard-11, ATCC VR 959) (Rabies virus, strain CVS-11)
Assay Procedure: cell-based or functional assay
Measure: CVS neutralizing antibody titre (RFFIT): IU/mg (IU/mg)
Record the value in IU/mg, omitting the unit from your answer.

Asked: Quickly give me recorded CVS neutralizing antibody titre (RFFIT): IU/mg for 213-E6 25GS 213-E6 (VHH) EVQLVESGGGLVQAGASLRLSCAASGSTLSRYGVGWFRQAPGKERELVASVDWSGSRTYYADSVKGRFTISRDNAKNTGYLQMNSLKPDDTAVYYCAADSSVVPGIEKYDDWGLGTQVTVSSGGGGSGGGGSGGGGSGGGGSGGGGSEVQLVESGGGLVQAGASLRLSCAASGSTLSRYGVGWFRQAPGKERELVASVDWSGSRTYYADSVKGRFTISRDNAKNTGYLQMNSLKPDDTAVYYCAADSSVVPGIEKYDDWGLGTQVTVSS
Given back: 300

The reported numbers originate from patent US20200123233A1.
